target-system: human PDE2A1 (Homo sapiens (Human))
Sequence (O00408 other isoform, or with tags, fused parts or gaps): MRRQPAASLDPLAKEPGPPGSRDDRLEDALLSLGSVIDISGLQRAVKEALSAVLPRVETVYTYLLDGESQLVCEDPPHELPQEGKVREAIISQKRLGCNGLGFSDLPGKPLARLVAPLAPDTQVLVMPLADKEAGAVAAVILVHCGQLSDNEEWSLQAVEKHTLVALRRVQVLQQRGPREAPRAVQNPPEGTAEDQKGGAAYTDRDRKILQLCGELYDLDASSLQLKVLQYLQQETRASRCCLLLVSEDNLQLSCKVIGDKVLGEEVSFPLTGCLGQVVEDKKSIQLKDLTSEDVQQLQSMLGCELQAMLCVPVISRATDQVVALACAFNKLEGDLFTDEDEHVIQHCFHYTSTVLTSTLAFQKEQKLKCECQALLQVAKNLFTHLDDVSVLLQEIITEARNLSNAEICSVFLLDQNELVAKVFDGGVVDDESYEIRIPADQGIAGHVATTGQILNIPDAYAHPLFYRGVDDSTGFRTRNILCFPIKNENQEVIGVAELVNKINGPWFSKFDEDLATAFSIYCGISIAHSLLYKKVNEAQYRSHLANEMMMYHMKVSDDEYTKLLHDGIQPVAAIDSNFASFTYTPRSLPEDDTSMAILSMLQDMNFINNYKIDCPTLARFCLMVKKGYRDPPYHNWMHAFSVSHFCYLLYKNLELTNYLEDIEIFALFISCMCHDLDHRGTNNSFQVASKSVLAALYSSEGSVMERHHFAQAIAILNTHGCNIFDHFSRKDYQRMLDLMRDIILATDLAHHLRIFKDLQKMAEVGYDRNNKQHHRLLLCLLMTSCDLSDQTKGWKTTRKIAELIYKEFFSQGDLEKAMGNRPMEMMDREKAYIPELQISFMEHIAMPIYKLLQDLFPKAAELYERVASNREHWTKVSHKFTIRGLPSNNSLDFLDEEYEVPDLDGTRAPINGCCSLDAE
method-summary: IMAP FP PDE selectivity panel, human PDE2A1
Format: biochemical
run-conditions: Human PDE2, Lab B; read-out: Human PDE2 Ki (nM) - Lab B
Examples of compounds with documented Ki follow.
experimental-readout: Ki (nM)

{"compound": "CC[C@@H](NC(=O)c1cc(=O)[nH]c(C2CC2)n1)c1ccc(C(F)(F)F)c(F)c1 [Example 254]", "experimental-readout": "Ki", "value-observed": 22}
{"compound": "O=C(NC1(c2ccc(C(F)(F)F)cc2)CCCC1)c1cc(=O)[nH]c(-c2ccccc2)n1 [Example 415]", "experimental-readout": "Ki", "value-observed": 30}
{"compound": "Cc1nc(C(=O)NC(C)(C)c2ccc(C(F)(F)F)cc2C)cc(=O)[nH]1 [Example 595]", "experimental-readout": "Ki", "value-observed": 37}
{"compound": "CC(C)[C@@H](NC(=O)c1cc(=O)[nH]c(-c2ncccn2)n1)c1ccc(C(F)(F)F)c(F)c1 [Example 248]", "experimental-readout": "Ki", "value-observed": 3.5}
{"compound": "Cc1nc(C(=O)NC2(c3ccc(CC(F)(F)F)cc3)CC2)cc(=O)[nH]1 [Example 627]", "experimental-readout": "Ki", "value-observed": 46}
{"compound": "O=C(NCc1ccc(S(F)(F)(F)(F)F)cc1)c1cc(=O)[nH]c(-c2ccccc2)n1 [Example 377]", "experimental-readout": "Ki", "value-observed": 58}
{"compound": "CC(NC(=O)c1cc(=O)[nH]c(-c2ncccn2)n1)c1ccc(C2CC2)cc1 (stereo not shown) [Example 83]", "experimental-readout": "Ki", "value-observed": 27}
{"compound": "CCc1nc(C(=O)N[C@@H](c2ccc(C(F)(F)F)c(F)c2)C2CC2)cc(=O)[nH]1 [Example 603]", "experimental-readout": "Ki", "value-observed": 7.2}
{"compound": "CC[C@@H](NC(=O)c1cc(=O)[nH]c(C2CC2)n1)c1ccc(SC(F)(F)F)c(F)c1 [Example 246]", "experimental-readout": "Ki", "value-observed": 5.2}
{"compound": "Cc1nc(C(=O)N[C@@H](c2ccc(C(F)F)cc2)C2(C)CC2)cc(=O)[nH]1 [Example 645]", "experimental-readout": "Ki", "value-observed": 25}
{"compound": "CC(C)(C)c1ccc(C2(NC(=O)c3cc(=O)[nH]c(-c4ncccn4)n3)CC2)cc1 [Example 575]", "experimental-readout": "Ki", "value-observed": 65}
{"compound": "CC(C)(C)[C@@H](NC(=O)c1cc(=O)[nH]c(-c2ccccc2)n1)c1ccc(C(F)(F)F)cc1F [Example 545]", "experimental-readout": "Ki", "value-observed": 1.2}
{"compound": "Cc1nc(C(=O)N[C@H](C)c2ccc(C3CC3)c(F)c2)cc(=O)[nH]1 [Example 620]", "experimental-readout": "Ki", "value-observed": 19}
{"compound": "Cc1nc(C(=O)N[C@@H](c2ccc(C(F)(F)F)cc2F)C(C)(C)C)cc(=O)[nH]1 [Example 617]", "experimental-readout": "Ki", "value-observed": 4}
{"compound": "CC(C)(C)[C@@H](NC(=O)c1cc(=O)[nH]c(C2CC2)n1)c1ccc(C(F)(F)F)cc1 [Example 262]", "experimental-readout": "Ki", "value-observed": 0.79}
{"compound": "O=C(N[C@@H](c1ccc(C2CC2)c(F)c1)C1CC1)c1cc(=O)[nH]c(-c2ncccn2)n1 [Example 581]", "experimental-readout": "Ki", "value-observed": 13}

Where do these numbers come from? They come from patent US9815796B2.
